# Target: UniProt P47898
# Sequence (P47898 whole entry): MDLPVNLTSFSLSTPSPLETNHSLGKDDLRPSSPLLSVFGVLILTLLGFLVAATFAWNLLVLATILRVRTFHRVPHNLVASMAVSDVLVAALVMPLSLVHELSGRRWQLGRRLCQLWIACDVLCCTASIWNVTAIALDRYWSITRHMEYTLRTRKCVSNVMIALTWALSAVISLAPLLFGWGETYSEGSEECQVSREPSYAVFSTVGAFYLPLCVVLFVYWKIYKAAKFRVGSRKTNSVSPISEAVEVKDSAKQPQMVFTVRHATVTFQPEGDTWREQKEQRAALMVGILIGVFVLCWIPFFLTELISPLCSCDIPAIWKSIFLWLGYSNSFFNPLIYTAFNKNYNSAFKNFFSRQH
# Assay Overview: GPCRScan assay: inhibition of 5-HT5A
# Set-up: radioligand conc. used [nm] 2.0 - 3.3, parental cells Flp-In CHO
# Condition Notes: read-out: Ki

{"Structure String": "COCCOCCn1nc(C)c2c1CSCc1cc(n(C)n1)CCc1cc(c3ccc(F)cc3c1)OCCCn1c(C(=O)O)c(C)c3c-2c(Cl)ccc31", "Target": "UniProt P47898", "Ki": "2.47 µM"}

* * *

# Target: Mu-type opioid receptor (Homo sapiens, UniProt P35372)
# Sequence (P35372 whole entry): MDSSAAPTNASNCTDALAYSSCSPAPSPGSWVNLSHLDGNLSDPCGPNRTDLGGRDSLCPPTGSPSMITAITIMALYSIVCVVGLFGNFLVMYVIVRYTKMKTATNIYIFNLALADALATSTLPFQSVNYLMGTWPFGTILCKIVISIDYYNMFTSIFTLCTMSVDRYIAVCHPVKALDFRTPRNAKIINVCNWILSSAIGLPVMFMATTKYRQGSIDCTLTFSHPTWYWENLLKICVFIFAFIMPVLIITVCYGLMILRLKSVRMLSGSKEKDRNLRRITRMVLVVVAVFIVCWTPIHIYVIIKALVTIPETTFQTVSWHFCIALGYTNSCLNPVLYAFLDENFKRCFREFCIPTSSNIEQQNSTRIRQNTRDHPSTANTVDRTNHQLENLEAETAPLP
pKi: −log10 of the molar value.
Parameter Measured: pKi

{"Structure String": "COCCOCCn1nc2c(c1C)-c1c(Cl)ccc3c1c(C)c(C(=O)O)n3CCCOc1cc(cc3c(F)c(Cl)ccc13)CCc1cc(nn1C)CSC2", "Target": "Mu-type opioid receptor (Homo sapiens, UniProt P35372)", "Observed": "< 5.00"}

* * *

# Target: Sodium-dependent dopamine transporter (Homo sapiens, UniProt Q01959)
# Sequence (Q01959 whole entry): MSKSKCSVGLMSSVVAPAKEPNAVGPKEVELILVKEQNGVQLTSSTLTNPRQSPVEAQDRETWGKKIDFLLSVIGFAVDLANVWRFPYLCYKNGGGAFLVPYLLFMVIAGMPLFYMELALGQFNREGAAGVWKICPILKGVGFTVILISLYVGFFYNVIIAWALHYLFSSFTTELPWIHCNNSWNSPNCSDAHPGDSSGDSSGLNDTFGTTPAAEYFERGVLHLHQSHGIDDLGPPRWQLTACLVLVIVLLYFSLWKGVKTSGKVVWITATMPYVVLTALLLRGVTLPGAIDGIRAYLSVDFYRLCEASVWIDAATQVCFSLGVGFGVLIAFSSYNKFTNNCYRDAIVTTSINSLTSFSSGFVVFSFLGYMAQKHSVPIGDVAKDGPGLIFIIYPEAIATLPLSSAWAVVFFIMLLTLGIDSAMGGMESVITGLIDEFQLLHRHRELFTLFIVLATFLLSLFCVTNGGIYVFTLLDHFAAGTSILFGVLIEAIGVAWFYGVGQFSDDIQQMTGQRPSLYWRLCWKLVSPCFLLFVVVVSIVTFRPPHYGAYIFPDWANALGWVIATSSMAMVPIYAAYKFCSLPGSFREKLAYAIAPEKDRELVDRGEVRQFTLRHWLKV
# Assay Overview: GPCRScan assay: inhibition of DAT
# Parameters: radioligand conc. used [nm] 3.6 – 16.0, parental cells stable HEK
# Condition Notes: read-out: Ki
pKi: −log10 of the molar value.
Parameter Measured: pKi

{"Structure String": "COCCOCCn1nc(C)c2c1CSCc1cc(n(C)n1)CCc1cc(c3ccc(F)cc3c1)OCCCn1c(C(=O)O)c(C)c3c-2c(Cl)ccc31", "Parameter Measured": "pKi", "Observed": 5.43}

* * *

# Target: Delta-type opioid receptor (Homo sapiens, UniProt P41143)
# Sequence (P41143 whole entry): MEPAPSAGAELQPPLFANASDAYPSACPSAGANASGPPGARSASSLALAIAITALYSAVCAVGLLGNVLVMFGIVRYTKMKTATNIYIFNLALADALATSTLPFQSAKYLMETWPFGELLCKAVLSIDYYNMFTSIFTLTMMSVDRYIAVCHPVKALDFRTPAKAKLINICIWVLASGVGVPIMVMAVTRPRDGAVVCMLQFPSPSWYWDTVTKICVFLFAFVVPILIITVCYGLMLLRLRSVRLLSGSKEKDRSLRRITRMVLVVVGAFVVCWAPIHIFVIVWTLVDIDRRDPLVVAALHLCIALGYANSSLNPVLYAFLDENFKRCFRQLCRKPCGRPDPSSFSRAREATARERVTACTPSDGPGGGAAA
# Assay Overview: GPCRScan assay: inhibition of DOR
# Design: radioligand conc. used [nm] 1.0 – 2.0, parental cells stable HEK
# Condition Notes: read-out: Ki
pKi: −log10 of the molar value.
Catalogue of pKi readings, one per entry.

{"Structure String": "COCCOCCn1nc2c(c1C)-c1c(Cl)ccc3c1c(C)c(C(=O)O)n3CCCOc1cc(cc3c(F)c(Cl)ccc13)CCc1cc(nn1C)CSC2", "pKi": 6.06}
{"Structure String": "COCCOCCn1nc(C)c2c1CSCc1cc(n(C)n1)CCc1cc(c3ccc(F)cc3c1)OCCCn1c(C(=O)O)c(C)c3c-2c(Cl)ccc31", "pKi": 5.49}

* * *

# Target: Sodium-dependent noradrenaline transporter (Homo sapiens, UniProt P23975)
# Sequence (P23975 whole entry): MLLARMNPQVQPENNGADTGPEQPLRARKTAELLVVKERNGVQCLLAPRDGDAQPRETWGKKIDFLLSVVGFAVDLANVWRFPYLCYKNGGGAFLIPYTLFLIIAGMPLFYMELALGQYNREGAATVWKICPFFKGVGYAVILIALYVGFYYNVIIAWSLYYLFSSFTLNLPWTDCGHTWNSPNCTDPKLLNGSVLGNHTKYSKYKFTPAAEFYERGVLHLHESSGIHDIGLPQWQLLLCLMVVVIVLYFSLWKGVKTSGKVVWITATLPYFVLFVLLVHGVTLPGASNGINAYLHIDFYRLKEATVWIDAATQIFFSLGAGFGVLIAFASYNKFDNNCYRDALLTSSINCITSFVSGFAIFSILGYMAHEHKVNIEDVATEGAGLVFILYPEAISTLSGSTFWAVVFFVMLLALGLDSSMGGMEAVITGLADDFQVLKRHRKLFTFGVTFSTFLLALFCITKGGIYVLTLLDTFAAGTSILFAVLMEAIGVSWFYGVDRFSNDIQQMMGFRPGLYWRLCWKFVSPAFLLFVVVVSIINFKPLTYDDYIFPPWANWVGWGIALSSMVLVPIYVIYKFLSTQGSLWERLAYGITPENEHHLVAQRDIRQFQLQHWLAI
# Assay Overview: GPCRScan assay: inhibition of NET
# Parameters: radioligand conc. used [nm] 1.3 – 5.0, parental cells stable HEK
# Condition Notes: read-out: Ki
pKi: −log10 of the molar value.

{"Structure String": "COCCOCCn1nc(C)c2c1CSCc1cc(n(C)n1)CCc1cc(c3ccc(F)cc3c1)OCCCn1c(C(=O)O)c(C)c3c-2c(Cl)ccc31", "Target": "Sodium-dependent noradrenaline transporter (Homo sapiens, UniProt P23975)", "pKi": 5.54}
